Where do these numbers come from? They come from ChEMBL document CHEMBL3817780.

Test system: HEK293
Assay: Cytotoxicity against HEK293 cells assessed as reduction in cell viability after 72 hrs by MTS assay
Format: cell-based
Conditions: Homo sapiens, HEK293, 72 h
pIC50: −log10 of the molar value.
QUANTITY: pIC50

>  <MOLECULE>
Cl.Cl.O=C(c1cc(F)cc(N2CCNCC2)c1)N1CCN(C(=O)c2ccc(O[C@H]3CCNC3)c(C3CCCCC3)c2)CC1

>  <QUANTITY>
pIC50

>  <OBS VALUE>
3.89

$$$$
>  <MOLECULE>
Cl.Cl.O=C(c1cc(F)cc(N2CCNCC2)c1)N1CCN(C(=O)c2ccc(O[C@H]3CCNC3)c(C3CCC(C(F)(F)F)CC3)c2)CC1 (some centres not stated)

>  <QUANTITY>
pIC50

>  <OBS VALUE>
3.89

$$$$

###

Target: Cadherin-1/Transcription factor 7-like 2 (Homo sapiens, UniProt P12830+Q9NQB0)
Sequence (Q9NQB0 whole entry, the tested form may be a part): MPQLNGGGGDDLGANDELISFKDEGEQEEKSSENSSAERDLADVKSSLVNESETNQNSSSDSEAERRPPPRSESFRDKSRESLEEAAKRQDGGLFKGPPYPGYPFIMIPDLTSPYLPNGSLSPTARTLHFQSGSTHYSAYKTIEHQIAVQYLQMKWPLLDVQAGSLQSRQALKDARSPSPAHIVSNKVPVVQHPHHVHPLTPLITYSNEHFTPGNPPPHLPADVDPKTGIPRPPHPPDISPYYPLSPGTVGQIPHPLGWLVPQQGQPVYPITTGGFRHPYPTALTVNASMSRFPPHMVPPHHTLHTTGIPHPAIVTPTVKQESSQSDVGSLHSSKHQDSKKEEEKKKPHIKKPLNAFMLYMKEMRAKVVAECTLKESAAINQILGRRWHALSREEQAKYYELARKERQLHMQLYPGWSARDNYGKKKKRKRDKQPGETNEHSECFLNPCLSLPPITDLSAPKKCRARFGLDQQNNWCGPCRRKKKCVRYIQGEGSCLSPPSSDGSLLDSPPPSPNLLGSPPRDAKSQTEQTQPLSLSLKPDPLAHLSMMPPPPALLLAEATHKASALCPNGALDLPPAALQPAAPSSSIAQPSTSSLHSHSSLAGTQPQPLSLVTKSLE
Sequence (P12830 whole entry, the tested form may be a part): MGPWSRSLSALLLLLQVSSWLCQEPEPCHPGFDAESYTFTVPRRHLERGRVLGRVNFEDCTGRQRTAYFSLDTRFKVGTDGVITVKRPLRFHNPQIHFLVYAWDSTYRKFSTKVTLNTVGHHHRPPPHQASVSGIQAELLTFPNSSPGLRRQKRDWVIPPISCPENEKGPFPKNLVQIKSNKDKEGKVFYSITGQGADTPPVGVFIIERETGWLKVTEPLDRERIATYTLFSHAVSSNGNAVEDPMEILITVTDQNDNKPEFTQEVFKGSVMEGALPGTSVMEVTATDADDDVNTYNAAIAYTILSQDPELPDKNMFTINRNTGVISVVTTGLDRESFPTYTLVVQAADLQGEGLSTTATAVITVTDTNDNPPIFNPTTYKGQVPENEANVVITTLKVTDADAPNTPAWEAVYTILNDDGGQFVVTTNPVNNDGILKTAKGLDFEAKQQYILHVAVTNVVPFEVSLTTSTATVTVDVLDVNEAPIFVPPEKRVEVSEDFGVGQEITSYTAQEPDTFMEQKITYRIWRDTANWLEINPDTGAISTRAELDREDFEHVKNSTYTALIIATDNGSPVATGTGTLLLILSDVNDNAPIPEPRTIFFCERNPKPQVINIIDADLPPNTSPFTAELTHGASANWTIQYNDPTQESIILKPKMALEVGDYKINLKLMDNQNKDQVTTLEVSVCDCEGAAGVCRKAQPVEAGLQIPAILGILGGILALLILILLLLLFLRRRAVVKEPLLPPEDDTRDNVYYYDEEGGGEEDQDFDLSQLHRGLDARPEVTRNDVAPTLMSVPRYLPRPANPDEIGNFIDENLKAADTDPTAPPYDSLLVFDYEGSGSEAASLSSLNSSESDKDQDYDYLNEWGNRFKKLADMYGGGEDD
Test: Competitive inhibition of wild type beta-catenin (unknown origin) expressed in Escherichia coli BL21 DE3 interaction with N-terminally biotinylated human E-cadherin (824 to 887 residues) by alpha screen assay
pKi: −log10 of the molar value.

>  <CPD SMILES>
Cl.Cl.O=C(c1cc(F)cc(N2CCNCC2)c1)N1CCN(C(=O)c2ccc(O[C@H]3CCNC3)c(C3CCCCC3)c2)CC1

>  <pKi>
3.29

$$$$

###

Target: Cadherin-1/Transcription factor 7-like 2 (Homo sapiens, UniProt P12830+Q9NQB0)
Assay: Competitive inhibition of wild type beta-catenin (unknown origin) expressed in Escherichia coli BL21 DE3 interaction with N-terminally biotinylated human E-cadherin (824 to 887 residues) by alpha screen assay
QUANTITY: IC50

>  <CPD SMILES>
Cl.Cl.O=C(c1cc(F)cc(N2CCNCC2)c1)N1CCN(C(=O)c2ccc(O[C@H]3CCNC3)c(C3CCCCC3)c2)CC1

>  <SYSTEM>
Cadherin-1/Transcription factor 7-like 2 (Homo sapiens, UniProt P12830+Q9NQB0)

>  <OBS VALUE>
550 µM

$$$$

###

Biological target: beta-catenin-B-cell lymphoma 9 protein complex (Homo sapiens, UniProt P35222)
Sequence (P35222 whole entry): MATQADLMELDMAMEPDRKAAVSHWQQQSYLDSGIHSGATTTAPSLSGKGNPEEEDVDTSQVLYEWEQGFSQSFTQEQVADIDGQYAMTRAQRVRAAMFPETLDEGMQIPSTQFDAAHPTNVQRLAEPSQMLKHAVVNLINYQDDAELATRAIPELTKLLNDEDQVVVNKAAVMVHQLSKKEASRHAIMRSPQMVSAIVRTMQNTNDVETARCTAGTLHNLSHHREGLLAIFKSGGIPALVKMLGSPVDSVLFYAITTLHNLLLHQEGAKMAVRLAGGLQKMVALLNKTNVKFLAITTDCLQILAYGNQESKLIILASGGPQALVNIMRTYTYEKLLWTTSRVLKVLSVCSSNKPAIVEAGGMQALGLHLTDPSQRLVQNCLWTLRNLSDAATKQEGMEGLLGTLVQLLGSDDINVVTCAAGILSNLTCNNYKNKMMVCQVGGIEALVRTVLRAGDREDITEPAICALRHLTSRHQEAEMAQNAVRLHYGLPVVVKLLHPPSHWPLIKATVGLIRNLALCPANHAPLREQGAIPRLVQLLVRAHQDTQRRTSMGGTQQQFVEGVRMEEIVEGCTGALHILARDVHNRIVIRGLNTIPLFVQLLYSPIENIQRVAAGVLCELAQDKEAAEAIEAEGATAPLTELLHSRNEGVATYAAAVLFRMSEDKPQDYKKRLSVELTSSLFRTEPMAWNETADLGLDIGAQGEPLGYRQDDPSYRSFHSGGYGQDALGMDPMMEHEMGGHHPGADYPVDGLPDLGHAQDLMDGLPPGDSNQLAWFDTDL
Sequence (O00512 whole entry): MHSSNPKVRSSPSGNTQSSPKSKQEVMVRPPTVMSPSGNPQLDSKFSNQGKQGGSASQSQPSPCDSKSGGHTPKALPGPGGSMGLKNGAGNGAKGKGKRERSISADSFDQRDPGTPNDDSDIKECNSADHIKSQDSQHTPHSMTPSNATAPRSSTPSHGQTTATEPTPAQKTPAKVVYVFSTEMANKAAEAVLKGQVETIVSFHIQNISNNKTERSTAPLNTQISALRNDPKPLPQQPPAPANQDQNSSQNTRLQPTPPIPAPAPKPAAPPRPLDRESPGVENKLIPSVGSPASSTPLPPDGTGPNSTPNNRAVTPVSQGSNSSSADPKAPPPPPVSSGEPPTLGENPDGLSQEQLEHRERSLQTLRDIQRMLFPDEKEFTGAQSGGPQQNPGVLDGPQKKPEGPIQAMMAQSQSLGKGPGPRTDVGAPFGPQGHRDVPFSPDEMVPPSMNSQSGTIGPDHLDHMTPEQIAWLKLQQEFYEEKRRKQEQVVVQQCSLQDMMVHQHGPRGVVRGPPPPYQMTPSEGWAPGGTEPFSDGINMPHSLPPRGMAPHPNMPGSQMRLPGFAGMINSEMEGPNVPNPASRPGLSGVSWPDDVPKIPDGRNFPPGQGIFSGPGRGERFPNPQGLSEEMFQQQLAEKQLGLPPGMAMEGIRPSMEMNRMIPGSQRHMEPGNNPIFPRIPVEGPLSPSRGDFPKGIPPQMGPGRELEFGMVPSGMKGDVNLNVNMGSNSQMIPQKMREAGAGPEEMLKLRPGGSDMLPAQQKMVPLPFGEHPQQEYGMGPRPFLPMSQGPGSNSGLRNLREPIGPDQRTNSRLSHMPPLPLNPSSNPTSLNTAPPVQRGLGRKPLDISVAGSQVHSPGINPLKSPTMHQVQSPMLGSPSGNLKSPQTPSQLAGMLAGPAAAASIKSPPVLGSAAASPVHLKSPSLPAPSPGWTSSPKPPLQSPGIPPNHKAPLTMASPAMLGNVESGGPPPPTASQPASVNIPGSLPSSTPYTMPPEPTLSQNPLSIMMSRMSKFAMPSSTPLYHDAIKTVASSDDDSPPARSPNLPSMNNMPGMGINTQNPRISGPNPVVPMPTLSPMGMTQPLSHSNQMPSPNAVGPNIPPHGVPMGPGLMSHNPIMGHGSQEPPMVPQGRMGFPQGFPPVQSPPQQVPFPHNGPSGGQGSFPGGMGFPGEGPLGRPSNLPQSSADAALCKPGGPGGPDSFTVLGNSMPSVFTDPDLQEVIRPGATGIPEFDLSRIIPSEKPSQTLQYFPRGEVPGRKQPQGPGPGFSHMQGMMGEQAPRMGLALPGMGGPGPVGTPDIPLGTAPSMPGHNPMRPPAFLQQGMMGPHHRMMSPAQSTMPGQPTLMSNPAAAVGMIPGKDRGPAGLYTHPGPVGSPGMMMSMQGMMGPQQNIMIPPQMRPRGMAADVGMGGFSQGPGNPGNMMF
Experiment: Competitive inhibition of wild type beta-catenin (unknown origin) expressed in Escherichia coli BL21 DE3 interaction with N-terminally biotinylated human BCL9 (350 to 375 residues) by alpha screen assay
pIC50: −log10 of the molar value.

>  <CPD SMILES>
Cl.Cl.O=C(c1cc(F)cc(N2CCNCC2)c1)N1CCN(C(=O)c2ccc(O[C@H]3CCNC3)c(C3CCCCC3)c2)CC1

>  <pIC50>
5.25

$$$$
